system: T1, CEACAM1 (Sino Biological) (human, UniProt P13688 35-428, limits assumed)
T1 construct: may be the same as CEACAM1-HIS; also called hCEACAM1; biotinylated soluble CEACAM1
T1 sequence: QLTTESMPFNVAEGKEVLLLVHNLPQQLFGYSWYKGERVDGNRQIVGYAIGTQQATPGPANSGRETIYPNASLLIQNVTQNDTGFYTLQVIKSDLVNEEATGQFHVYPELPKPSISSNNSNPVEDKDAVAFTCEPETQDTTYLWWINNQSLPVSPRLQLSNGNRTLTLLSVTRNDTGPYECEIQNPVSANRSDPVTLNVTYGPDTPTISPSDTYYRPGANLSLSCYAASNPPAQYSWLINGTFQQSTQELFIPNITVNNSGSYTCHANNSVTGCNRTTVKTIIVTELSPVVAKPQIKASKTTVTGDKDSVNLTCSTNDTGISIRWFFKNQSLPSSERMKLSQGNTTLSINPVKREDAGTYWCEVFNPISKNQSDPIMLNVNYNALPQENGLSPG
experimental details: SPR single-cycle
measurement kind: fold better than Parent (KD)
# do not omit the unit; it follows the number

Parent VH/L1 (antibody, IgG4, V domains shown, IgG4 S241P, kappa; also called VHp/L1; VH2 N56Q / 1) VH: EVQLLESGGGLVQPGGSLRLSCAASGFSFSDYYLYWVRQAPGKGLEWVATISVGGGQTSYADSVKGRFTISRDNSKNTLYLQMNSLRAEDTAMYYCTRGLYYGPAWFAYWGQGTLVTVSS VL: DIVMTQSPDSLAVSLGERATINCKSSQSLLNSANQKNYLAWYQQKPGQPPKLLIYFASTRESGVPDRFSGSGSGTDFTLTISSLQAEDVAVYYCQSHYPFYYTFGGGTKVEIK | 3.87 fold
He17/L4 #1 (antibody, IgG4, V domains shown, IgG4 S241P, kappa) VH: EVQLLESGGGLVQPGGSLRLSCAASGFSFSDYYLYWVRQAPGKGLEWVATISVGGGQTSYADSVKGRFTISRDNSKNTLYLQMNSLRAEDTAMYYCTRARTYGPAWFAYWGQGTLVTVSS VL: DIVMTQSPDSLAVSLGERATINCKSSQSLLNSANQKNYLAWYQQKPGQPPKLLIYFASTRESGVPDRFSGSGSGTDFTLTISSLQAEDVAVYYCQSHFPYYYTFGGGTKVEIK | 0.96 fold

Consider the additional binder presented here.
Q: Which fold better than Parent (KD) value belongs to He14/L3 (antibody, IgG4, V domains shown, IgG4 S241P, kappa) VH: EVQLLESGGGLVQPGGSLRLSCAASGFSFSDYYLYWVRQAPGKGLEWVATISVGGGQTSYADSVKGRFTISRDNSKNTLYLQMNSLRAEDTAMYYCTRGLYYGPSWVAYWGQGTLVTVSS VL: DIVMTQSPDSLAVSLGERATINCKSSQSLLNSANQKNYLAWYQQKPGQPPKLLIYFASTRESGVPDRFSGSGSGTDFTLTISSLQAEDVAVYYCQSHFPFPFTFGGGTKVEIK ?
A: 1.49 fold
